Test system: L1210 leukemia ip in BDF1 mice, survival T/C
assay.procedure: NCI In Vivo Anticancer Drug Screen. Data for tumor model L1210 Leukemia (intraperitoneal) in B6D2F1 (BDF1) mice
setup.conditions: endpoint: mean survival time; dose: 100.0 mg/kg/injection; schedule: Q01DX009 (ip); vehicle: saline with Tween-80; higher = longer survival
Description: The antitumor activity of compounds was measured in mice bearing transplantable tumors. Survival or tumor size were measured and the results are expressed as the measurement made in the treated group (T) divided by the measurement made in the vehicle treated control group (C). The tumor model used in this assay is L1210 Leukemia (intraperitoneal) in B6D2F1 (BDF1) mice
Inconclusive results and toxic doses are left out.
readout.type: T/C

> print(dat)
                                    compound          measured
 1  O=C(COc1ccc(Cl)c(Cl)c1)Nc1ccc[n+](Cc2ccc(S(=O)(=O)F)cc2Cl)c1   94 % of control
 2    CCN(CC)P1(=O)NCCCO1 (stereo not drawn)   87 % of control
 3            CCCCOc1ccc(C=Nc2ccc(CC)cc2)cc1   94 % of control
 4  Cc1cc2c(cc1C)C1(c3ccccc3)OC2(c2ccccc2)C(C(=O)c2ccccc2)C1C(=O)c1ccccc1 (stereo not drawn)   91 % of control
 5     COc1cc(-c2nc3ccccc3c(=O)o2)cc(OC)c1OC  105 % of control
 6  CCOC(=O)c1ccc(NC(=O)Nc2c(C)n(C)n(-c3ccccc3)c2=O)cc1   89 % of control
 7                    CCOC(=O)c1ccc2ccccc2c1   94 % of control
 8  CCOC(=O)/C=[C](\C(=O)OCC)[Sn]([CH2]C)([CH2]C)[CH2]C   96 % of control
 9          CCOC(=O)/C(C#N)=C\c1cc(OC)ccc1OC  101 % of control
10  O=C1C(c2ccccc2)=C2C(=C1c1ccccc1)c1cccc3cccc2c13   92 % of control
11     O=C(Nc1ccc(Nc2ccccc2)cc1)Nc1cccc(F)c1   88 % of control
12  CC1C=CC(C(=O)Nc2ccc(Cl)c(Cl)c2)N1C (stereo not drawn)   91 % of control
13  COc1ccc(/C=N/n2c(C)cc(C)c(C#N)c2=O)c(OC)c1OC  100 % of control

----------
T/C values by entry
Tested on: L1210 leukemia ip in BDF1 mice, survival T/C
assay.procedure: NCI In Vivo Anticancer Drug Screen. Data for tumor model L1210 Leukemia (intraperitoneal) in B6D2F1 (BDF1) mice
setup.conditions: endpoint: mean survival time; dose: 100.0 mg/kg/injection; schedule: Q01DX009 (ip); vehicle: other; higher = longer survival
Inconclusive results and toxic doses are left out.
readout.type: T/C

> print(dat)
                           chemical.string  readout.type          measured
1  CCCCNc1ccc([N+](=O)[O-])cc1[N+](=O)[O-]           T/C   93 % of control
2                     CCCCCCCCCCCCCCCCCCCC           T/C   93 % of control
3             CCCCCCCCCCCCCCCCSc1ccc(C)cc1           T/C   88 % of control
4           CSc1ccc(NC(=O)Nc2cccc(F)c2)cc1           T/C  108 % of control
5              c1c[nH]c(Cc2ccc3ccccc3c2)c1           T/C  110 % of control

----------
Recorded T/C values for a group of compounds are listed next.
System: L1210 leukemia ip in BDF1 mice, survival T/C
assay.procedure: NCI In Vivo Anticancer Drug Screen. Data for tumor model L1210 Leukemia (intraperitoneal) in B6D2F1 (BDF1) mice
setup.conditions: endpoint: mean survival time; dose: 200.0 mg/kg/injection; schedule: Q01DX009 (ip); vehicle: saline; higher = longer survival
Toxic doses and inconclusive results are not listed.
readout.type: T/C

> print(dat)
                                    compound  readout.type          measured
 1                                O=C1CCSCC1           T/C   95 % of control
 2          CCCC(=O)Nc1ccc(NS(C)(=O)=O)cc1OC           T/C  100 % of control
 3                            c1ccc2cnccc2c1           T/C  110 % of control
 4                    CCCC(SCC(=O)O)SCC(=O)O           T/C  100 % of control
 5  O=C1OC(C(O)C(O)CO)C(O)C1O (configuration not stated)           T/C   97 % of control
 6                          CCOC1=CC(=O)CCC1           T/C  100 % of control
 7  CN(C)[C@@H]1C(=O)C(C(=O)NCNCCCC(=O)O)=C(O)[C@@]2(O)C(=O)C3=C(O)c4c(O)cccc4[C@@](C)(O)[C@H]3C[C@@H]12           T/C  102 % of control
 8  ClC1=C(Cl)C2(Cl)C3(Cl)C(Cl)=C(Cl)C(Cl)(C34OCCO4)C2(Cl)C12OCCO2 (configuration not stated)           T/C   93 % of control
 9               Nc1cccc2ccc(S(=O)(=O)O)cc12           T/C   97 % of control
10               CCc1ccccc1NC(=O)N1CCN(C)CC1           T/C   92 % of control
11     CCOC(=O)/C=C(/OC(=O)c1ccccc1)c1ccccc1           T/C  107 % of control
12  O=S(=O)(Cc1ccccc1)C(=C(N1CCCCC1)N1CCCCC1)S(=O)(=O)Cc1ccccc1           T/C   93 % of control

----------
Test system: L1210 leukemia ip in BDF1 mice, survival T/C
assay.procedure: NCI In Vivo Anticancer Drug Screen. Data for tumor model L1210 Leukemia (intraperitoneal) in B6D2F1 (BDF1) mice
setup.conditions: endpoint: mean survival time; dose: 200.0 mg/kg/injection; schedule: Q04DX003 (ip); vehicle: other; higher = longer survival
Inconclusive results and toxic doses are left out.
# key: entry, value: T/C
readout.type: T/C

> print(dat)
                                   compound          measured
1  COC(=O)C(Cc1ccc(N(CCCl)CCCl)cc1)N=NNc1nc[nH]c1C(N)=O (configuration not stated)  103 % of control
2               c1c[nH]c(Cc2ccc3ccccc3c2)c1  101 % of control
3                        CCc1nnc2cc(C)ccn12   98 % of control
4             CCOC(=O)CN=NNc1[nH]ncc1C(N)=O  113 % of control
5                    CC(C)(C)c1ccccc1C(N)=O  109 % of control
6  COc1cc2cc3c4cc(OC)c(OC)cc4cc[n+]3c(/C=C/c3cccc([N+](=O)[O-])c3)c2cc1OC  119 % of control
7                    CNS(=O)(=O)c1ccc(N)cc1  106 % of control

----------
Catalogue of compounds with associated T/C
System: L1210 leukemia ip in BDF1 mice, survival T/C
assay.procedure: NCI In Vivo Anticancer Drug Screen. Data for tumor model L1210 Leukemia (intraperitoneal) in B6D2F1 (BDF1) mice
setup.conditions: endpoint: mean survival time; dose: 200.0 mg/kg/injection; schedule: Q01DX009 (ip); vehicle: Klucel (hydroxypropylcellulose) (HPC); higher = longer survival
Toxic doses and inconclusive results are not listed.
readout.type: T/C

> print(dat)
                                    compound  readout.type          measured
 1  Cc1c(Cl)cccc1NC(=O)c1c(Cl)c(Cl)c(Cl)c(Cl)c1C(=O)O           T/C  103 % of control
 2              NNC(=O)c1ccc(Cl)cc1Nc1ccccc1           T/C   94 % of control
 3  COc1ccc(N=C(C(=Nc2ccc(OC)cc2)c2ccccc2)c2ccccc2)cc1           T/C   95 % of control
 4             O=C(COc1ccc(Cl)cc1)Nc1ccccc1F           T/C   89 % of control
 5  CC1(OC(=O)c2ccccc2)C2C=CC1C1C(=O)NC12 (stereo unspecified)           T/C  102 % of control
 6       O=S(=O)(Cc1ccccc1)C(Cl)(Cl)c1ccccc1           T/C  102 % of control
 7     CN(C)C(=O)Sc1cc(Cl)c(S(=O)(=O)F)cc1Cl           T/C  100 % of control
 8   COc1ccc(OC)c(NC(=O)Nc2ccc(C(=O)O)cc2)c1           T/C   96 % of control
 9  CCOC(=O)C1C(=O)C(CN(CCCl)CCCl)C(=O)C(C(=O)OCC)C1c1ccc(O)cc1 (stereo unspecified)           T/C  112 % of control
10  Cc1ccc(NC(=O)Nc2cccc(O)c2)c([N+](=O)[O-])c1           T/C   98 % of control
11  O=C1C(n2ccc(=O)[nH]c2=O)CCN1CCOCc1ccccc1 (stereo unspecified)           T/C  105 % of control

Origin of the recorded values: PubChem BioAssay AID248
